Cited source: patent US9073975B2

# pIC50 listing for each entry below
Biological target: recombinant human vWF-A1 domain (Homo sapiens, UniProt P07359)
Construct: whole blood drawn from voluntary donors; made in house; host or cells: E. coli (vWF-A1); washed platelets from human donor blood (GPIb, endogenous)
Sequence (P07359 17-652): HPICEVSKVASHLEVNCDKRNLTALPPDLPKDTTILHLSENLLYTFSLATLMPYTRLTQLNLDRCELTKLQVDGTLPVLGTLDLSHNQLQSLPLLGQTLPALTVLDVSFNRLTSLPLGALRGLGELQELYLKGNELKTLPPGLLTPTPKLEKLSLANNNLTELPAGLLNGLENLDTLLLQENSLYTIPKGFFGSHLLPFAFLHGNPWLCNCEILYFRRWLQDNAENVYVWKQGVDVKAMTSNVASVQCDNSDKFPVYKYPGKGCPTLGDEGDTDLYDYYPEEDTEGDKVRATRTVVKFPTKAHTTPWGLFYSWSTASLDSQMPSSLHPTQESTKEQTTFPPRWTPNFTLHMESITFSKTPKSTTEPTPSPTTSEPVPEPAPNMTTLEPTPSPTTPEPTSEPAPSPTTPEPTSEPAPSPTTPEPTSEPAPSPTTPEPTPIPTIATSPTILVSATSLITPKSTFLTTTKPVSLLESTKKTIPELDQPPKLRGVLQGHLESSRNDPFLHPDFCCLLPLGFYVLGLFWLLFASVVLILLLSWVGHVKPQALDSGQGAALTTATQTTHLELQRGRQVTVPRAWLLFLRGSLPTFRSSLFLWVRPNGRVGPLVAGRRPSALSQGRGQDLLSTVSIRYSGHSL
Sequence (P13224 26-206 partner): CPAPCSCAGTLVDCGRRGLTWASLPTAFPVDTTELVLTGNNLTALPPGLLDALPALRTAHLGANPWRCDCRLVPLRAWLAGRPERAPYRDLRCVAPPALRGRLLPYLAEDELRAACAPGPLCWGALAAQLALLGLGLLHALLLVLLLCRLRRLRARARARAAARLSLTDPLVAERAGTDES
Sequence (P14770 17-177 partner): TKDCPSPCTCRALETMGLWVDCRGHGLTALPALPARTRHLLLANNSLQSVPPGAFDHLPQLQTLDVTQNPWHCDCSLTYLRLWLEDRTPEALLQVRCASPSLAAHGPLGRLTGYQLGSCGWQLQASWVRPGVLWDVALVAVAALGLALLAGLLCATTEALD
Test: Static human platelet adhesion to recombinant human vWF-A1 domain
Assay type: cell-based
Conditions: washed calcein AM labeled human platelets, static conditions, 1.5 h adhesion; read-out: Activity (IC50 for inhibition of the binding of platelets to vWF A1 domain)
pIC50: −log10 of the molar value. Non-standard residues stand in square brackets, D forms with d. Residues, ends and D or L forms follow the SMILES beside them. Cha = N[C@@H](CC1CCCCC1)C(=O)O; Nle = CCCC[C@H](N)C(=O)O; Ahp = NCCCCCCC(=O)O

Some compounds with known pIC50 results, for comparison:
{"columns": ["compound", "pIC50"],
 "data": [
  ["CSCC[C@@H]1NC(=O)[C@H](CCCNC(=N)N)NC(=O)[C@H](CCC(=O)O)NC(=O)[C@H](CCC(N)=O)NC(=O)CCCCCCNC(=O)[C@H](CC(C)C)NC(=O)[C@H](CC(N)=O)NC(=O)[C@H](Cc2c[nH]cn2)NC(=O)[C@H](CC(C)C)NC(=O)[C@H](C)NC1=O [Example 25] (cyclo(ALHNL[Ahp]QERM))", "> 6.00"],
  ["CCCC[C@@H]1NC(=O)[C@H](CCCNC(=N)N)NC(=O)[C@H](CCC(=O)O)NC(=O)[C@H]([C@@H](C)O)NC(=O)CCCCCCNC(=O)[C@H](CC(C)C)NC(=O)[C@H](CC(N)=O)NC(=O)[C@H](Cc2c[nH]cn2)NC(=O)[C@H](CC(C)C)NC(=O)[C@H](C)NC1=O [Example 43] (cyclo(ALHNL[Ahp]TER[Nle]))", "> 6.00"],
  ["CC(C)C[C@@H]1NC(=O)[C@H](C)NC(=O)[C@H](CC2CCCCC2)NC(=O)[C@H](CCCNC(=N)N)NC(=O)[C@H](CCC(=O)O)NC(=O)[C@H]([C@@H](C)O)NC(=O)CCCCCCNC(=O)[C@H](CC(C)C)NC(=O)[C@H](CC(N)=O)NC(=O)[C@H](Cc2c[nH]cn2)NC1=O [Example 17] (cyclo(ALHNL[Ahp]TER[Cha]))", "> 6.00"]
]}

Turning to the following compound.
// query pIC50 value for entry CCCC[C@@H]1NC(=O)[C@H](C)NC(=O)[C@H](CCSC)NC(=O)[C@H](CCCNC(=N)N)NC(=O)[C@H](CCC(=O)O)NC(=O)[C@H]([C@@H](C)O)NC(=O)CCCCCCNC(=O)[C@H](CC(C)C)NC(=O)[C@H](CC(N)=O)NC(=O)[C@H](Cc2c[nH]cn2)NC1=O [Example 13] (cyclo(A[Nle]HNL[Ahp]TERM))
5.00 to 6.00
